List of IC50 values.
- SYSTEM_NAME: NRAS G12C (Homo sapiens (Human), UniProt P01111+P62937, G12C)
- Sequence (P01111 whole entry G12C): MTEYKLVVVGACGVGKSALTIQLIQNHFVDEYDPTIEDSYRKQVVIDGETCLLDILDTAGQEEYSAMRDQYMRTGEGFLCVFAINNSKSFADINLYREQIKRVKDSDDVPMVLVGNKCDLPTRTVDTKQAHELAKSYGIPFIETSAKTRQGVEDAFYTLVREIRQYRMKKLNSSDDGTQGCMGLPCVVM
- Sequence (P62937 whole entry): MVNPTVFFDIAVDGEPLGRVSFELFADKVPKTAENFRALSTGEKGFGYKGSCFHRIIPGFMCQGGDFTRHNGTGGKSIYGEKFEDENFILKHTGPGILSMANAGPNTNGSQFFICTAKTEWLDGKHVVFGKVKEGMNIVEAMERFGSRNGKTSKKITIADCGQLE
- EXPERIMENT_SUMMARY: Ras-Raf disruption/FRET/MOA assay (BRAF RBD, Cyclophilin A)
- Format: biochemical
- TEST_CONDITIONS: read-out: NRAS G12C FRET data IC50
TEST_READOUT: IC50

{"COMPOUND": "CCn1c(-c2cccnc2[C@H](C)OC)c2c3cc(ccc31)-c1csc(n1)C[C@H](NC(=O)[C@H](C(C)C)N(C)C(=O)N1CCC13CCS(=O)(=O)CC3)C(=O)N1CCC[C@H](N1)C(=O)OCC(C)(C)C2 [Compound A530]", "TEST_READOUT": "IC50", "VALUE": "100 to 1000 nM"}
{"COMPOUND": "CCn1c(-c2cnccc2COC)c2c3cc(ccc31)-c1cc(O)cc(c1)C[C@H](NC(=O)[C@H](C(C)C)N(C)C(=O)CCCCN)C(=O)N1CCC[C@H](N1)C(=O)OCC(C)(C)C2 [Compound A66]", "TEST_READOUT": "IC50", "VALUE": "100 to 1000 nM"}
{"COMPOUND": "CCn1c(-c2cccnc2[C@H](C)OC)c2c3cc(ccc31)-c1csc(n1)C[C@H](NC(=O)[C@H](C(C)C)N(C)C(=O)N1CCOC[C@H]1C)C(=O)N1CCC[C@H](N1)C(=O)OCC(C)(C)C2 [Compound A402]", "TEST_READOUT": "IC50", "VALUE": "10 to 100 nM"}
{"COMPOUND": "CCn1c(-c2cccnc2[C@H](C)OC)c2c3cc(ccc31)-c1cccc(c1)C[C@H](NC(=O)[C@H](C(C)C)N(C)C(=O)[C@H]1CCN(C)C1)C(=O)N1CCC[C@H](N1)C(=O)OCC(C)(C)C2 [Compound A107]", "TEST_READOUT": "IC50", "VALUE": "1000 to 10000 nM"}
{"COMPOUND": "CCn1c(-c2cccnc2[C@H](C)OC)c2c3cc(ccc31)-c1cccc(c1)C[C@H](NC(=O)[C@H](C(C)C)N(C)C(=O)N1CC(OC)C1)C(=O)N1CCC[C@H](N1)C(=O)OCC(C)(C)C2 [Compound A355]", "TEST_READOUT": "IC50", "VALUE": "100 to 1000 nM"}
{"COMPOUND": "CCn1c(-c2cccnc2[C@H](C)OC)c2c3cc(ccc31)-c1csc(n1)C[C@H](NC(=O)[C@H](C(C)C)N(C)C(=O)N1CCCCC1)C(=O)N1CCC[C@H](N1)C(=O)OCC(C)(C)C2 [Compound A363]", "TEST_READOUT": "IC50", "VALUE": "10 to 100 nM"}
{"COMPOUND": "CCn1c(-c2cccnc2[C@H](C)OC)c2c3cc(ccc31)-c1csc(n1)C[C@H](NC(=O)[C@H](C(C)C)N1CCC3(COC3)C1)C(=O)N1CCC[C@H](N1)C(=O)OCC(C)(C)C2 [Compound A561]", "TEST_READOUT": "IC50", "VALUE": "10 to 100 nM"}
{"COMPOUND": "CCn1c(-c2cccnc2[C@H](C)OC)c2c3cc(ccc31)-c1csc(n1)C[C@H](NC(=O)[C@H](C(C)C)N(C)C(=O)N1CC(S(C)(=O)=O)C1)C(=O)N1CCC[C@H](N1)C(=O)OCC(C)(C)C2 [Compound A383]", "TEST_READOUT": "IC50", "VALUE": "10 to 100 nM"}
{"COMPOUND": "CCn1c(-c2cccnc2[C@H](C)OC)c2c3cc(ccc31)-c1csc(n1)C[C@H](NC(=O)[C@H](C(C)C)N(C)C(=O)N1C[C@@H](C)N(C)C[C@@H]1C)C(=O)N1CCC[C@H](N1)C(=O)OCC(C)(C)C2 [Compound A292]", "TEST_READOUT": "IC50", "VALUE": "100 to 1000 nM"}
